Consider the following compounds; for each one, report its selectivity ratio.
# Experiment summary: Therapeutic index, ratio of IC50 for human TZM-b1 cells to EC50 for HIV1 NL4-3
# Format: cell-based
# Setup conditions: read-out: TI

Record "CCc1oc2c3c(ccc2c(=O)c1Br)OC(C)(C)[C@H](OC(=O)[C@@]12CC[C@@](C)(C(=O)O1)C2(C)C)[C@@H]3OC(=O)[C@@]12CC[C@@](C)(C(=O)O1)C2(C)C" , field selectivity ratio: > 24

Record "Cc1oc2c3c(c(Br)c(C)c2c(=O)c1Br)OC(C)(C)[C@H](OC(=O)[C@@]12CC[C@@](C)(C(=O)O1)C2(C)C)[C@@H]3OC(=O)[C@@]12CC[C@@](C)(C(=O)O1)C2(C)C" , field selectivity ratio: > 1.2

Record "CNCc1cc(=O)c2ccc3c(c2o1)[C@@H](OC(=O)[C@@]12CC[C@@](C)(C(=O)O1)C2(C)C)[C@@H](OC(=O)[C@@]12CC[C@@](C)(C(=O)O1)C2(C)C)C(C)(C)O3" , field selectivity ratio: > 100
